Procedure text: In vitro inhibitory activity against platelet phosphodiesterase (PDE)
Grouping by measured IC50 is done with the following cut points: bucket A (below 8 nM), bucket B (8 nM to below 400 nM), bucket C (400 nM or more)

Reference set, count: 7
> print(dat)
                                   compound  class.assignment
1  Br.CN(C(=O)CCCOc1ccc2c(c1)CN(CC(=O)OC(C)(C)C)C(N)=N2)C1CCCCC1          bucket C
2  Br.CC(OC(=O)CN1Cc2cc(OCCCC(=O)N(C)C3CCCCC3)ccc2N=C1N)C(C)(C)C (centres undefined)          bucket C
3  Br.CN(C(=O)CCCOc1ccc2c(c1)CN(CC(=O)OC1CCCCC1)C(N)=N2)C1CCCCC1          bucket B
4  CCOC(=O)CN1Cc2cc(OCCCC(=O)N(C)C3CCCCC3)ccc2N=C1NC(C)=O          bucket C
5  CN(C(=O)C(CCOc1ccc2c(c1)CN1CC(=O)NC1=N2)C(=O)O)C1CCCCC1 (centres undefined)          bucket A
6  Br.CN(C(=O)CCCOc1ccc2c(c1)CN(CC(=O)O)C(N)=N2)C1CCCCC1          bucket B
7  CN(C(=O)CCCOc1ccc2c(c1)CN1CC(=O)NC1=N2)C1CCCCC1 [LIXAZINONE]          bucket A

Kindly review the next compound as well.
For the record Br.CCOC(=O)CN1Cc2cc(OCCCC(=O)N(C)C3CCCCC3)ccc2N=C1N , report the class its IC50 corresponds to.
bucket B
